Reported folding enthalpy values for the following sequences.
assay: folding enthalpy; higher = less favourable; fluorescence melt of hairpins on a sequencing array, two-state fit; settings: sodium 0.088 M
Value expressed in kcal/mol; do not type the unit.

{"SEQ_TEXT": "GGGTTTGGAAACAAGTCC ((..(((....)))..))", "VALUE_UNITS": "kcal/mol", "folding enthalpy": -22.3}
{"SEQ_TEXT": "GTACACGAAAGTGAGTAC ((((((....)))..)))", "VALUE_UNITS": "kcal/mol", "folding enthalpy": -15.6}
{"SEQ_TEXT": "GTGGTCGAAAGACACCAC ((((((....)))..)))", "VALUE_UNITS": "kcal/mol", "folding enthalpy": -15.6}
{"SEQ_TEXT": "GATCATCAAGATGATC ((((((....))))))", "VALUE_UNITS": "kcal/mol", "folding enthalpy": -40.4}
{"SEQ_TEXT": "GATCATCCCAATGATC ((((((....))))))", "VALUE_UNITS": "kcal/mol", "folding enthalpy": -36.2}

Exam item: Could you tell me which folding enthalpy is on file for GGTTATGGAAACATAATC (.(((((....))))).) ?
Marked response: -31.2

Exam item: Could you tell me which folding enthalpy is on file for GCGCTTCCGAAAGGACGC (((..(((....)))))) ?
Marked response: -20.3

Exam item: Could you tell me which folding enthalpy is on file for GGGCGTGGAAACGCGCCC (((((.(....).))))) ?
Marked response: -22.5

Exam item: Could you tell me which folding enthalpy is on file for GCGGATCGAAAGATTCGC (((.(((....))).))) ?
Marked response: -45.9

Exam item: Could you tell me which folding enthalpy is on file for GTCATGGAAACATGAC ((((((....)))))) ?
Marked response: -34.5

====

assay: melting temperature; fluorescence melt of hairpins on a sequencing array, two-state fit, raised by 9.35 °C to match UV melts; details: sodium 0.088 M
PROPERTY_MEASURED: Tm (°C)
Value expressed in °C; do not type the unit.

Consider the worked cases shown below.
{"SEQ_TEXT": "GAGGCACGAAAGTGTCTC (((.(((....))).)))", "VALUE_UNITS": "°C", "Tm": 64.5}
{"SEQ_TEXT": "GGCTTCGGAAACGAGGTC (.(.(((....))).).)", "VALUE_UNITS": "°C", "Tm": 39.3}
{"SEQ_TEXT": "GATCTTATCGAAGATC ((((((....))))))", "VALUE_UNITS": "°C", "Tm": 38.7}
{"SEQ_TEXT": "GATCCGGCTTCGGATC ((((((....))))))", "VALUE_UNITS": "°C", "Tm": 59.5}
{"SEQ_TEXT": "GCGATTTCGAAAGAACGC (((..(((....))))))", "VALUE_UNITS": "°C", "Tm": 36.9}

Exam item: Could you tell me which Tm is on file for GTGTCACGAAAGTGTCAC (((.(((....))).))) ?
Marked response: 53.5

Exam item: Could you tell me which Tm is on file for GCCCGCTCGAAAGAGGGC (((..(((....)))))) ?
Marked response: 54.6

Exam item: Could you tell me which Tm is on file for GGATCCGAAAGGACGTCC ((((((....)))..))) ?
Marked response: 31.9

Exam item: Could you tell me which Tm is on file for GAGCACGAAAGTGCACTC ((((((....)))..))) ?
Marked response: 58

Exam item: Could you tell me which Tm is on file for GATCCCATGTGGGATC ((((((....)))))) ?
Marked response: 61.2

Exam item: Could you tell me which Tm is on file for GGGCGTGGAAACGCGCCC (((((.(....).))))) ?
Marked response: 68.3

Exam item: Could you tell me which Tm is on file for GGTGATGGAAACGTCATC (.(((.(....).))).) ?
Marked response: 34.7

====

test: folding enthalpy; higher = less favourable; fluorescence melt of hairpins on a sequencing array, two-state fit; settings: sodium 0.088 M
Reported folding enthalpy values for the following sequences.
Value expressed in kcal/mol; do not type the unit.

{"SEQ_TEXT": "GAACCCGGAAACGGATTC (((.(((....))).)))", "folding enthalpy (kcal/mol)": -21}
{"SEQ_TEXT": "CGCCGACGGAAACGTGCG (((..(((....))))))", "folding enthalpy (kcal/mol)": -27.6}
{"SEQ_TEXT": "GCTTAGCGAAAGCGTAGC (((..((....))..)))", "folding enthalpy (kcal/mol)": -28.9}
{"SEQ_TEXT": "GATCACATACGTGATC ((((((....))))))", "folding enthalpy (kcal/mol)": -41.2}

Exam item: Could you tell me which folding enthalpy is on file for GACGCCGAAAGGCATGTC ((((((....)))..))) ?
Marked response: -15.2

Exam item: Could you tell me which folding enthalpy is on file for CGGTTTCGGAAACGACCG (((..(((....)))))) ?
Marked response: -17.1

Exam item: Could you tell me which folding enthalpy is on file for CGAGCGGAAACGCGTCG ((((((....))).))) ?
Marked response: -13.2

Exam item: Could you tell me which folding enthalpy is on file for GCACCAGCGAAAGCTTGC (((..(((....)))))) ?
Marked response: -11.8

====

assay: melting temperature; fluorescence melt of hairpins on a sequencing array, two-state fit, raised by 9.35 °C to match UV melts; conditions: sodium 0.088 M
Where Tm equals or exceeds 40 °C, the correct label is rule met; where it does not, the label is rule not met.

{"SEQ_TEXT": "GCATGGCGAAAGCACTGC (((..((....))..)))", "LABEL_VALUE": "rule met"}
{"SEQ_TEXT": "GAGTGAGGAAACTCGTTC ((..(((....)))..))", "LABEL_VALUE": "rule not met"}
{"SEQ_TEXT": "GTCAGCGGAAACGCCAAC ((..(((....)))..))", "LABEL_VALUE": "rule not met"}

Exam item: Dear colleague, could you confirm whether GACACCGAAAGGTGTGTC ((((((....)))..))) has Tm at or above 40 °C?
Marked response: rule met

Exam item: Dear colleague, could you confirm whether GCGCACGAAAGTGGACGC ((((((....)))..))) has Tm at or above 40 °C?
Marked response: rule met

Exam item: Dear colleague, could you confirm whether GTTTATGCGAAAGCAAAC (((..(((....)))))) has Tm at or above 40 °C?
Marked response: rule not met

Exam item: Dear colleague, could you confirm whether CGGAGCGGAAACGCACCG (((.(((....))).))) has Tm at or above 40 °C?
Marked response: rule met

Exam item: Dear colleague, could you confirm whether GCGTGAGAAATCACGC ((((((....)))))) has Tm at or above 40 °C?
Marked response: rule met

Exam item: Dear colleague, could you confirm whether GGCCTCGGAAACGAGGTC (.(((((....))))).) has Tm at or above 40 °C?
Marked response: rule met

Exam item: Dear colleague, could you confirm whether GCATGGCGAAAGCAACGC ((.(.((....)).).)) has Tm at or above 40 °C?
Marked response: rule not met

Exam item: Dear colleague, could you confirm whether GATCTCCTAGGAGATC ((((((....)))))) has Tm at or above 40 °C?
Marked response: rule met

Exam item: Dear colleague, could you confirm whether GCCCTCCCGAAAGGGGGC (((..(((....)))))) has Tm at or above 40 °C?
Marked response: rule met

Exam item: Dear colleague, could you confirm whether GCCACTGGAAACAGTGAC (.(((((....))))).) has Tm at or above 40 °C?
Marked response: rule met

====

experiment: folding enthalpy; higher = less favourable; fluorescence melt of hairpins on a sequencing array, two-state fit; conditions: sodium 0.088 M
Reported folding enthalpy values for the following sequences.
Value expressed in kcal/mol; do not type the unit.

Consider the worked cases shown below.
{"SEQ_TEXT": "GATCTCCTAGGAGATC ((((((....))))))", "folding enthalpy / kcal/mol": -36}
{"SEQ_TEXT": "GATCGATACGTCGATC ((((((....))))))", "folding enthalpy / kcal/mol": -38.6}
{"SEQ_TEXT": "GATCATGAATATGATC ((((((....))))))", "folding enthalpy / kcal/mol": -46.8}
{"SEQ_TEXT": "GGGAGCGCGAAAGCGCCC (((..(((....))))))", "folding enthalpy / kcal/mol": -10.1}
{"SEQ_TEXT": "GCTGATCGAAAGATAAGC (((.(((....))).)))", "folding enthalpy / kcal/mol": -35.1}

Exam item: Could you tell me which folding enthalpy is on file for GCTCGGCGAAAGCTGCGC ((.(.((....)).).)) ?
Marked response: -17.4

Exam item: Could you tell me which folding enthalpy is on file for GTAAATGGAAACATTTAC (((((((....))))))) ?
Marked response: -31.5

Exam item: Could you tell me which folding enthalpy is on file for GACACCGAAAGGTCCGTC ((((((....)))..))) ?
Marked response: -16.9

Exam item: Could you tell me which folding enthalpy is on file for GCCACGCGAAAGCCTGGC ((((.((....)).)))) ?
Marked response: -30.4

Exam item: Could you tell me which folding enthalpy is on file for GATCCGTGAACGGATC ((((((....)))))) ?
Marked response: -33.1
